- Tested on: RXF 393 renal
- method: NCI-60 one-dose screen, 48 h
- recordedConditions: 10 µM unless noted
The panel holds about 83,000 compounds, 20% with a hit somewhere; the sample as a whole holds those more often. The source made the active and inactive calls. Rule for the calls: active = growth percent below 10; inactive = the rest.
Labels: True for active, False for inactive

1. CC1(O)CCC(Nc2cc(-c3ccc(C(F)(F)F)cc3)c(C#N)c3nc4ccccc4n23)CC1 (stereo not given): False
2. O=C(NO)c1ccc(Cn2c(=O)n(-c3ccccc3F)c(=O)c3ccccc32)cc1: True
3. O=C1NC(=O)C(c2cnc3ccccn23)=C1c1cn2c3c(cc(F)cc13)CN(C(=O)N1CCCCC1)CC2: False
4. Cc1cc(N(CCNc2ccnc3cc(Cl)ccc23)Cc2cccs2)nc(Cl)n1: True
5. Clc1ccc(Nc2nccc(Nc3ccc4[nH]ncc4c3)n2)cc1: False
6. O=C(Cn1c(=O)ccn(CCCCCCCCOc2ccc(Br)cc2)c1=O)Nc1ccc(Oc2ccc(Cl)cc2)cc1: False
7. CCc1nc2cc(/C=C/C(=O)NO)ccc2c(=O)n1CCc1ccc(F)cc1: True
8. [2H]C1([2H])[C@H](C)O[C@H](C)C([2H])([2H])N1c1ccc(NC(=O)c2cccc(-c3ccc(OC(F)(F)F)cc3)c2C)cn1: False
9. COc1cc2c(cc1O)c(=O)n(CCN(C)C)c1c3cc4c(cc3ncc21)OCO4: True
10. CCS(=O)(=O)N1CCN(c2ccc(Nc3ncc(C(N)=O)c(NC4CC4)n3)cc2)CC1: False
11. CNC(=O)c1ccc(Nc2ncc(C(F)(F)F)c(NCc3nccnc3N(C)S(C)(=O)=O)n2)cc1: True
12. O=C1NC(=O)[C@@H](c2cn3c4c(cccc24)CCC3)[C@@H]1c1c[nH]c2ccccc12: True
13. CO[C@H]1C[C@@H]2CC[C@@H](C)[C@@](O)(O2)C(=O)C(=O)N2CCCC[C@H]2C(=O)O[C@H]([C@H](C)C[C@@H]2CC[C@@H](OP(C)(C)=O)[C@H](OC)C2)CC(=O)[C@H](C)/C=C(\C)[C@@H](O)[C@@H](OC)C(=O)[C@H](C)C[C@H](C)\C=C/C=C/C=C/1C: False
14. Fc1ccc(NCc2cn(-c3ccccc3)nc2-c2ccc(OCc3ccccc3)cc2)cc1Cl: False
15. Clc1ccc2c(NCCNc3nc(N4CCCC4)nc4ccccc34)ccnc2c1: True
16. COc1cc(N2CCC(N(C)C)CC2)ccc1Nc1ncc(Cl)c(Nc2ccccc2P(C)(C)=O)n1: True
17. Nc1nc(N)c2nc(-c3cccc(O)c3)c(-c3cccc(O)c3)nc2n1: False
18. COC(=O)C1CCc2sc3ncnc(Nc4cn[nH]c4C(=O)Nc4ccc(CN5CCN(C)CC5)cc4)c3c21 (stereo not given): True
19. O=C(NOCCO)c1cc(CN2OCCCC2=O)c(F)c(F)c1Nc1ccc(I)cc1F: False
20. Cc1ccc(C(=O)Nc2ccc(CN3CCN(C)CC3)c(C(F)(F)F)c2)cc1C#Cc1cnc2cccnn12: True
21. C=C1[C@@H](O)C[C@H]2C(C)(C)C[C@H](Cl)C[C@]2(C)[C@H]1C[C@H](O)[C@H]1CC(=O)NC1=O: True
22. Cn1c(Nc2ccc(C(F)(F)F)cc2)nc2cc(Oc3ccnc(-c4ncc(C(F)(F)F)[nH]4)c3)ccc21: True
23. CC/C=C\C[C@H]1C/C=C2/C(=O)C=C[C@@H]2C/C=C\CCCC(=O)O1: True
24. O=C1C=CC2(NN=C(c3ccccc3)N2c2cccc(Cl)c2)C(Cl)=C1 (stereo not given): False
25. N#Cc1c(C(F)(F)F)cc(Nc2ccc3nc(NCCN4CCCC4)oc3c2)n2c1nc1ccccc12: False
26. COc1ccc(F)c(F)c1C(=O)c1cnc(NC2CCN(S(C)(=O)=O)CC2)nc1N: True
27. O=S1(=O)OC(c2ccc(O)c(Cl)c2)(c2ccc(O)c(Cl)c2)c2ccccc21: False
28. Cc1c(Cn2c(C)nc3c(C(=O)O)cc(N4CCOCC4)cc32)cccc1C(F)(F)F: False
29. Clc1ccc(C(Cn2ccnc2)OCc2ccsc2Cl)c(Cl)c1 (stereo not given): False
30. CC/C(=C(\c1ccc(OCCN2CCCCCCC2)cc1)c1ccc(OC(=O)C2CCCCC2)cc1)c1ccc(Cl)cc1: False
31. COc1ccc(C(=O)N2c3ccccc3Sc3ccccc32)c(F)c1: True
32. O=C(O)c1ccc(Nc2ncc3c(n2)-c2ccc(Cl)cc2C(c2c(F)cccc2F)=NC3)cc1: False
33. CC(C)(O)CC(=O)NCCn1ccc2ncnc(Nc3ccc(Oc4cccc(C(F)(F)F)c4)c(Cl)c3)c21: True
34. CN(N)c1nc2sc3c(c2c(=O)[nH]1)CCCC3: False
35. CN1CCN(c2ccc(OC(F)(F)F)c(Nc3ncc4c(n3)-c3c(c(C(N)=O)nn3CCO)CC4)c2)CC1: False
